Exercise: for every item that follows, state its recorded MIC.
Test system: Acinetobacter baumannii
runDescription: Antibacterial activity against Acinetobacter baumannii ATCC 19606 by microdilution method
Format: functional

Enquiry: Consider the compound shown here: NC[C@H]1O[C@H](O[C@H]2[C@H](O)[C@@H](O[C@H]3O[C@H](CO)[C@@H](O)[C@H](N)[C@H]3O)[C@H](N)C[C@@H]2N)[C@H](N)[C@@H](O)[C@@H]1O [BEKANAMYCIN] What is its recorded MIC?
Return: 4 µg/mL

Enquiry: Consider the compound shown here: CCCCCCCCCCCCCCCCSC[C@@H]1O[C@@H](O[C@@H]2[C@@H](O)[C@H](O[C@@H]3O[C@@H](CN)[C@H](O)[C@@H](O)[C@@H]3N)[C@@H](N)C[C@H]2N)[C@@H](O)[C@H](N)[C@H]1O (stereo in doubt) What is its recorded MIC?
Return: > 128 µg/mL

Enquiry: Consider the compound shown here: CCCCCCCCSC[C@@H]1O[C@@H](O[C@@H]2[C@@H](O)[C@H](O[C@@H]3O[C@@H](CN)[C@H](O)[C@@H](O)[C@@H]3N)[C@@H](N)C[C@H]2N)[C@@H](O)[C@H](N)[C@H]1O (stereo in doubt) What is its recorded MIC?
Return: > 128 µg/mL
